# protocol notes: chemical genetic growth profiling, strain panel (AID 1159580);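 note: tested at 20 µM; growth read once vehicle control cultures reached saturation at 30 °C; 1 = growth at the plate median or of vehicle wells; lower values mean less growth of the strain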
# condition context: S. cerevisiae deletion strains, growth OD, locus YNL307C, strain MCK1
Among all 5,500 compounds or so, about 2,000 (36%) were called active. Another 18% or so got no clear call; they are omitted. Cut-off read from the data, not from the text of the source: active = normalized growth mostly below about 0.91 (no sharp cut-off); inconclusive = no clear call, values can overlap the other calls; inactive = mostly above about 0.92. This is one part of the list.
Allowed answers: active, inactive

>  <compound>
CC(=O)N[C@@H](CS)C(=O)O

>  <class label>
inactive

$$$$
>  <compound>
CC(C)NC[C@H](O)COc1cccc2ccccc12

>  <class label>
inactive

$$$$
>  <compound>
O=C(O)CN(CC(=O)O)Cc1cc2c(-c3ccccc3C(=O)O)c3cc(CN(CC(=O)O)CC(=O)O)c(=O)cc-3oc2cc1O

>  <class label>
inactive

$$$$

Now turn to the next compound.
### Prompt Hey, what did the test say about C#CCCCCCCCCCCCC(O)CC(O)CO (stereo not given) ?
### Response inactive

----------
# protocol notes: chemical genetic growth profiling, strain panel (AID 1159580)
# condition context: S. cerevisiae deletion strains, growth OD, locus YKR026C, strain gcn3, hits give low values
Screen size: about 5,500 compounds; about 2,000 (36%) were called active. Roughly 18% stayed inconclusive and do not appear here. Some of the results follow.
We label by threshold. Values of normalized growth strictly beneath 1 are met. Values of 1 and up are not met.

See these solved cases before continuing.
>  <molecule>
CC(=O)OC1CCC2(C)C(=CC=C3C2CCC2(C)C3CCC2C(C)/C=C/C(C)C(C)C)C1(C)C (stereo not drawn)

>  <class label>
not met

$$$$
>  <molecule>
NC(N)=NS(=O)(=O)c1ccc(N)cc1

>  <class label>
met

$$$$
>  <molecule>
COc1ccc(CCN2CCC(Nc3nc4ccccc4n3Cc3ccc(F)cc3)CC2)cc1

>  <class label>
met

$$$$

// switching to the query molecule
### Prompt Please check: normalized growth for Cc1cc(NC(=O)C2=C(O)c3ccccc3S(=O)(=O)N2C)no1 , strictly under 1 or not?
### Response met

----------
# protocol notes: chemical genetic growth profiling, strain panel (AID 1159580)
# condition context: S. cerevisiae deletion strains, growth OD, locus YAL040C, strain CLN3, hits give low values
About 2,000 (36%) of roughly 5,500 compounds were called active. Inconclusive results (about 18%) are left out. The list shows a part of the results.
# normalized growth annotations
Respond using a number only.

Worked examples, 5 compounds total:
>  <compound>
CCCN1CCC[C@@H](c2cccc(O)c2)C1

>  <test readout>
normalized growth

>  <recorded result>
0.98

$$$$
>  <compound>
O=C(O)c1cc2cc(Cc3cccnc3)ccc2o1

>  <test readout>
normalized growth

>  <recorded result>
0.986

$$$$
>  <compound>
N[C@H](CO)C(=O)O

>  <test readout>
normalized growth

>  <recorded result>
1.01

$$$$
>  <compound>
CC(C)(C)C1(O)CCN2CC3c4ccccc4CCc4cccc(c43)C2C1 (stereo not drawn)

>  <test readout>
normalized growth

>  <recorded result>
0.975

$$$$
>  <compound>
OC(CN1CCC(Cc2ccc(F)cc2)CC1)c1ccc(Cl)cc1 (stereo not drawn)

>  <test readout>
normalized growth

>  <recorded result>
0.991

$$$$

Form field normalized growth, entry O=c1[nH]oc2c1CCNC2 : 0.99

Briefly, normalized growth measured for CCCN1CCC[C@@H](c2cccc(C#N)c2)C1 : 0.986

Form: compound = C[N+]1(C)C2CC(OC(=O)C(CO)c3ccccc3)CC1C1OC12 (stereo not drawn) ; normalized growth = 0.975

----------
Recorded normalized growth, one value per entry.
# protocol notes: chemical genetic growth profiling, strain panel (AID 1159580);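 note: tested at 20 µM; growth read once vehicle control cultures reached saturation at 30 °C; 1 = growth at the plate median or of vehicle wells; lower values mean less growth of the strain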
# condition context: S. cerevisiae deletion strains, growth OD, locus YPL051W, strain arl3, hits give low values
In all, about 5,500 compounds went through this assay and about 2,000 (36%) were called active. Not shown: some 18% with an inconclusive outcome. The list shows a part of the results.
Lab note: record just the number, no unit beside it.

# example entries with known answers
>  <molecule>
Oc1ccc(Cl)cc1Cc1cc(Cl)ccc1O

>  <normalized growth>
0.0629

$$$$
>  <molecule>
Nc1ccn(C2O[C@H](CO)[C@@H](O)[C@@H]2O)c(=O)n1 (stereo partly specified)

>  <normalized growth>
1.04

$$$$
>  <molecule>
CCCCOC(=O)c1ccc(N)cc1

>  <normalized growth>
0.725

$$$$
>  <molecule>
C[C@H]1COC2=C1C(=O)C(=O)c1c2ccc2c1CCCC2(C)C

>  <normalized growth>
0.549

$$$$

For CCCCN(CCCC)CCCOC(=O)c1ccc(N)cc1 the molecule record lists normalized growth as 0.995

// normalized growth lookup, molecule = CC(=O)Oc1c(C)cccc1C(=O)O , result: 1

Sample Cc1cccc(Nc2ccccc2C(=O)O)c1C ; normalized growth observed: 0.906

// Cc1ccc(C)c(OCCCC(C)(C)C(=O)O)c1 : normalized growth value = 0.923

Summary for this molecule, Cc1ccc(Cl)c(Nc2ccccc2C(=O)O)c1Cl : normalized growth is 0.771

For record C=CCCCCCCCCCCCC(O)CC(O)COC(C)=O (stereo unspecified) (tested in a mixture with another compound) the listed normalized growth is 0.88

Field normalized growth (entry Cc1cc(-c2ccccc2)nnc1NCCN1CCOCC1 ) reads 0.985

normalized growth reported for this molecule CCN(CC)CCOC(=O)c1ccc(N)cc1 : 0.997

In plain terms, CCCCCCOc1ccccc1C(N)=O has a documented normalized growth of 0.878

Cc1c(Cl)cccc1Nc1ccccc1C(=O)O yielded normalized growth of 0.656

Lab note: measured normalized growth of Oc1ccc(Cl)cc1 was 1.01

Form: molecule = CC[C@H](C)C(=O)O[C@H]1C[C@@H](C)C=C2C=C[C@H](C)[C@H](CC[C@@H]3C[C@@H](O)CC(=O)O3)[C@H]21 ; normalized growth = 0.999

----------
# protocol notes: chemical genetic growth profiling, strain panel (AID 1159580);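 note: tested at 20 µM; growth read once vehicle control cultures reached saturation at 30 °C; 1 = growth at the plate median or of vehicle wells; lower values mean less growth of the strain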
# condition context: S. cerevisiae deletion strains, growth OD, locus YGR252W, strain gcn5, hits give low values
The campaign covered roughly 5,500 compounds. About 2,000 (36%) were called active. Not shown: some 18% with an inconclusive outcome. The list shows a part of the results.
# normalized growth binned as low: < 0.9; medium: ≥ 0.9 and < 1; high: ≥ 1

>  <compound>
CC1(C)OC(=O)C=CC2(C)C1CC(O)C1(C)C2CCC2(C)C(c3ccoc3)OC(=O)C3OC321 (stereo not drawn)

>  <class label>
medium

$$$$

### Prompt Sort into band: CCCCN1CCCCC1C(=O)Nc1c(C)cccc1C (stereo not drawn)
### Response high

### Prompt Could you tell me which band CC(=O)OCC(COC(C)=O)OC(C)=O belongs to?
### Response medium

### Prompt Lab log: COc1ccc2c(c1)O[C@H]1c3ccc(OC)cc3OC[C@@H]21 — assign normalized growth category
### Response low

### Prompt Sort into band: CC(C)NCC(O)c1cc(O)cc(O)c1 (stereo not drawn)
### Response medium

### Prompt Field: class (normalized growth) — entry: C=CCCCCCCCCCCCC(O)CC(O)COC(C)=O (stereo not drawn) (tested in a mixture with another compound)
### Response low

### Prompt For this compound, which bin applies? O=C(O)CN(CC(=O)O)Cc1cc2c(-c3ccccc3C(=O)O)c3cc(CN(CC(=O)O)CC(=O)O)c(=O)cc-3oc2cc1O
### Response high

### Prompt Record CC[C@H](C)C(=O)O[C@H]1CCC=C2C=C[C@H](C)C(CCC3C[C@@H](O)CC(=O)O3)[C@H]21 (stereo partly drawn) — which class?
### Response high

### Prompt Lab note: which band did C=C1C(=O)O[C@@H]2C[C@@]3(C)CCC[C@H](C)C3=C[C@H]12 land in?
### Response low

### Prompt Class? Entry: COC(=O)C1=CCCN(C)C1
### Response medium

### Prompt Which of the defined bands does the recorded normalized growth of Cc1cccc(Nc2ccccc2C(=O)O)c1C sit within?
### Response low

----------
# protocol notes: chemical genetic growth profiling, strain panel (AID 1159580);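 note: tested at 20 µM; growth read once vehicle control cultures reached saturation at 30 °C; 1 = growth at the plate median or of vehicle wells; lower values mean less growth of the strain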
# condition context: S. cerevisiae deletion strains, growth OD, locus YER155C, strain BEM2, hits give low values
In all, about 5,500 compounds went through this assay and about 2,000 (36%) were called active. Inconclusive results (about 18%) are left out. The list shows a part of the results.
# normalized growth per entry
Give the figure only, with no unit attached.

Sample answers from the record:
>  <compound>
O=c1cc[nH]c(=S)[nH]1

>  <test readout>
normalized growth

>  <recorded result>
1.01

$$$$
>  <compound>
O=C1NC(=O)C(=O)C(=O)N1

>  <test readout>
normalized growth

>  <recorded result>
1.01

$$$$
>  <compound>
COc1cc(-c2coc3cc(OC)c(OC)c(OC)c3c2=O)cc(OC)c1OC

>  <test readout>
normalized growth

>  <recorded result>
0.984

$$$$
>  <compound>
CCNC(=O)CC[C@H](N)C(=O)O

>  <test readout>
normalized growth

>  <recorded result>
0.974

$$$$
>  <compound>
CC(=O)OCC(OC(C)=O)C(OC(C)=O)C(OC(C)=O)C(OC(C)=O)C(COC(C)=O)OC(C)=O (configuration not stated)

>  <test readout>
normalized growth

>  <recorded result>
0.972

$$$$
>  <compound>
CCCCOC(=O)c1ccccc1C(=O)OCc1ccccc1

>  <test readout>
normalized growth

>  <recorded result>
0.968

$$$$

// normalized growth lookup, compound = NC[C@@H]1CC[C@@H](N)[C@@H](O[C@H]2[C@H](O)[C@@H](O[C@H]3O[C@H](CO)[C@@H](O)[C@H](N)[C@H]3O)[C@H](N)C[C@@H]2N)O1 , result: 1

Origin of measurements: PubChem BioAssay AID1159580
